# maps each entry to its pEC50
Tested on: human coronavirus (HCoV) 229E
Test method notes: microbe, parasite or virus in culture
Assay type: cell-based, human coronavirus 229E
Condition details: MRCS cells, HCoV 229E, 3 days, CellTiter Glo; read-out: 229E CPE EC50
pEC50: −log10 of the molar value.

Compound	pEC50
CC(C)(C)[C@H](NC(=O)CC12CC(C1)C2)C(=O)N1C[C@H]2[C@@H]([C@H]1C(=O)N[C@H](C#N)C[C@@H]1CCNC1=O)C2(C)C	5.49
CC(C)(C)[C@H](NS(=O)(=O)N1CCOCC1)C(=O)N1C[C@H]2[C@@H]([C@H]1C(=O)N[C@H](C#N)C[C@@H]1CCNC1=O)C2(C)C	5.24
CC(C)(C)[C@H](NC(=O)C(F)(Cl)C(F)(F)F)C(=O)N1C[C@H]2[C@@H]([C@H]1C(=O)N[C@H](C#N)C[C@@H]1CCNC1=O)C2(C)C (some centres unmarked)	6.93
CCNC(=S)N[C@H](C(=O)N1C[C@H]2[C@@H]([C@H]1C(=O)N[C@H](C#N)C[C@@H]1CCNC1=O)C2(C)C)C(C)(C)C	6.05
CC(C)(C)[C@H](NC(=O)Cc1ccc2c(c1)CCC2)C(=O)N1C[C@H]2[C@@H]([C@H]1C(=O)N[C@H](C#N)C[C@@H]1CCNC1=O)C2(C)C	6.29
